- measured target: T1, VEGF (human, UniProt P15692-4 27-191, limits assumed)
- T1 construct: Biotinylated in the KDR-IgG ELISA, amine-coupled to the chip in BIAcore; also called biotinylated VEGF; vascular endothelial growth factor
- T1 sequence (P15692 other isoform, or with tags, fused parts or gaps limits assumed): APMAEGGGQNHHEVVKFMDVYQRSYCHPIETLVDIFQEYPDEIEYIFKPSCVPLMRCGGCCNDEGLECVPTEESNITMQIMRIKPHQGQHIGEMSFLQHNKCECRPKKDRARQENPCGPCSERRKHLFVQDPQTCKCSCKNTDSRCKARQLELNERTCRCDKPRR
- experiment notes: BIAcore-2000 SPR, relative to Y0192
- Protocol: BIAcore Analysis: The VEGF-binding affinities of Fab fragments were calculated from association and dissociation rate constants measured using a BIAcore-2000™ surface plasmon resonance system (BIAcore, Inc., Piscataway, N.J.). A biosensor chip was activated for covalent coupling of VEGF using N-ethyl-N′-(3-dimethylaminopropyl)-carbodiimide hydrochloride (EDC) and N-hydroxysuccinimide (NHS) according to the supplier's (BIAcore, Inc., Piscataway, N.J.) instructions. […]
Catalogue of Kd (wt)/Kd (mut) values
recorded metric: Kd (wt)/Kd (mut) (ratio)

>>> measured_value("Y0244-4 (Fab, V domains shown, Soluble Fab) VH: EVQLVESGGGLVQPGGSLRLSCAASGYTFTNYGINWVRQAPGKGLEWVGWINTYTGEPTYAADFKRRFTFSIDKSKSTAYLQMNSLRAEDTAVYYCAKYPHYYGSSHWYFDVWGQGTL VL: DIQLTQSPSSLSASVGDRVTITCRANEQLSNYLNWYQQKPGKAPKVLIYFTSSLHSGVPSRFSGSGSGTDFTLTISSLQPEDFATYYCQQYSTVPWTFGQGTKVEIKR")
0.9
>>> measured_value("Y0243-1 (Fab, V domains shown, Soluble Fab) VH: EVQLVESGGGLVQPGGSLRLSCAASGYDFTHYGMNWVRQAPGKGLEWVGWINTYTGEPTYAADFKRRFTFSLDTSKSTAYLQMNSLRAEDTAVYYCAKYPHYYGSSHWYFDVWGQGTL VL: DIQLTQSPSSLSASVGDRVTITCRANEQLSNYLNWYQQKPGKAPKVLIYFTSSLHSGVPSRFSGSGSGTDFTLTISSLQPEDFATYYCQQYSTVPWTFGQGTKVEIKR")
4.1
